Just for reference, patent US6569870B1 is where these values come from.

Test system: OVCAR-3, ovarian cancer cell line
MEASUREMENT TYPE: GI50 (µM)
Write the value in µM as a bare number.

These solved cases illustrate the format of a correct answer.
{"RECORD SMILES": "O=c1cc(-c2ccccc2F)[nH]c2cc3c(cc12)OCO3", "MEASUREMENT TYPE": "GI50", "MEASUREMENT UNIT": "µM", "ASSAY RESULT": 0.0813}
{"RECORD SMILES": "Fc1ccccc1-c1cc(=S)c2cc3c(cc2[nH]1)OCO3", "MEASUREMENT TYPE": "GI50", "MEASUREMENT UNIT": "µM", "ASSAY RESULT": 21.4}

// switching to the query compound
Prompt line: Report GI50 on OVCAR-3, ovarian cancer cell line for this entry: CC(C)(C)OC(=O)n1c(-c2ccccc2F)cc(=O)c2cc3c(cc21)OCO3
Response line: 0.0324

====

NCI-H226, non-small cell lung cancer cell line measurements of GI50, listed per entry.
Write the value in µM as a bare number.

These solved cases illustrate the format of a correct answer.
{"RECORD SMILES": "O=c1cc(-c2ccccc2F)[nH]c2cc3c(cc12)OCO3", "MEASUREMENT UNIT": "µM", "GI50": 0.447}
{"RECORD SMILES": "Fc1ccccc1-c1cc(=S)c2cc3c(cc2[nH]1)OCO3", "MEASUREMENT UNIT": "µM", "GI50": 16.6}

// switching to the query molecule
Prompt line: Report GI50 on NCI-H226, non-small cell lung cancer cell line for this entry: CC(C)(C)OC(=O)n1c(-c2ccccc2F)cc(=O)c2cc3c(cc21)OCO3
Response line: 0.0251
